Listing of entries alongside the reported Calcium Release Threshold (nM) P. americana.
tested on: native cockroach ryanodine receptors (in embryonic neuronal cells); assay: Calcium release assay, calcium imaging in primary embryonic cockroach neuronal cells; type: cell-based, Periplaneta americana

Compound	Reported Result
Cc1cccc(C(=O)NC(C)C)c1NC(=O)c1cc(C(F)(F)F)nn1-c1ccccc1Cl	<300 nM
Cc1cccc(C(=O)NC(C)C)c1NC(=O)c1cc(Cl)nn1-c1ncccc1Cl	<300 nM
Cc1cc(Cl)cc(C(=O)NC(C)C)c1NC(=O)c1cc(C(F)(F)F)nn1-c1ncccc1Cl	<300 nM

(Q) Value lookup for Calcium Release Threshold (nM) P. americana; key = CNC(=O)c1cc(Cl)cc(C)c1NC(=O)c1cc(Br)nn1-c1ncccc1Cl
(A) <300 nM

(Q) Moving on to [3H]c1cc(C)c(NC(=O)c2cc(C(F)(F)F)nn2-c2ccccc2F)c(C(=O)NC(C)C)c1
(A) <1000 nM

----------
test system: native cockroach ryanodine receptors (in embryonic neuronal cells); assay: Calcium release assay, calcium imaging in primary embryonic cockroach neuronal cells; type: cell-based, Periplaneta americana
Measurement Type: Calcium Release Threshold (nM) P. americana

Sample records with Calcium Release Threshold (nM) P. americana:
Compound	Reported Result
Cc1cccc(C(=O)NC(C)C)c1NC(=O)c1cc(Br)nn1-c1ncccc1Cl	<300 nM
Cc1cccc(C(=O)NC(C)C)c1NC(=O)c1cc(C(F)(F)F)nn1-c1ncccc1Cl	<300 nM
Cc1cc(Br)cc(C(=O)NC(C)C)c1NC(=O)c1cc(C(F)(F)F)nn1-c1ncccc1Cl	<300 nM
Cc1cc(Br)cc(C(=O)NC(C)C)c1NC(=O)c1cc(Br)nn1-c1ncccc1Cl	<300 nM

Next, consider the following molecule.
(Q) Would you mind telling me what Calcium Release Threshold (nM) P. americana value was observed for CNC(=O)c1cccc(C)c1NC(=O)c1cc(C(F)(F)F)nn1-c1ncccc1Cl ?
(A) <300 nM

----------
biological target: cockroach ryanodine receptor (roach femoral muscle membranes) (Periplaneta americana, UniProt Z9HFG3YSF4); assay: Radioligand displacement ([3H]-GN analog Cpd 1) from roach femoral muscle membranes; settings: read-out: Displacement IC50 (nM) P. americana; displacement of [3H]-Cpd 1, roach muscle membranes, 60 min at 32° C.
Sequence (Z9HFG3YSF4 1-5141): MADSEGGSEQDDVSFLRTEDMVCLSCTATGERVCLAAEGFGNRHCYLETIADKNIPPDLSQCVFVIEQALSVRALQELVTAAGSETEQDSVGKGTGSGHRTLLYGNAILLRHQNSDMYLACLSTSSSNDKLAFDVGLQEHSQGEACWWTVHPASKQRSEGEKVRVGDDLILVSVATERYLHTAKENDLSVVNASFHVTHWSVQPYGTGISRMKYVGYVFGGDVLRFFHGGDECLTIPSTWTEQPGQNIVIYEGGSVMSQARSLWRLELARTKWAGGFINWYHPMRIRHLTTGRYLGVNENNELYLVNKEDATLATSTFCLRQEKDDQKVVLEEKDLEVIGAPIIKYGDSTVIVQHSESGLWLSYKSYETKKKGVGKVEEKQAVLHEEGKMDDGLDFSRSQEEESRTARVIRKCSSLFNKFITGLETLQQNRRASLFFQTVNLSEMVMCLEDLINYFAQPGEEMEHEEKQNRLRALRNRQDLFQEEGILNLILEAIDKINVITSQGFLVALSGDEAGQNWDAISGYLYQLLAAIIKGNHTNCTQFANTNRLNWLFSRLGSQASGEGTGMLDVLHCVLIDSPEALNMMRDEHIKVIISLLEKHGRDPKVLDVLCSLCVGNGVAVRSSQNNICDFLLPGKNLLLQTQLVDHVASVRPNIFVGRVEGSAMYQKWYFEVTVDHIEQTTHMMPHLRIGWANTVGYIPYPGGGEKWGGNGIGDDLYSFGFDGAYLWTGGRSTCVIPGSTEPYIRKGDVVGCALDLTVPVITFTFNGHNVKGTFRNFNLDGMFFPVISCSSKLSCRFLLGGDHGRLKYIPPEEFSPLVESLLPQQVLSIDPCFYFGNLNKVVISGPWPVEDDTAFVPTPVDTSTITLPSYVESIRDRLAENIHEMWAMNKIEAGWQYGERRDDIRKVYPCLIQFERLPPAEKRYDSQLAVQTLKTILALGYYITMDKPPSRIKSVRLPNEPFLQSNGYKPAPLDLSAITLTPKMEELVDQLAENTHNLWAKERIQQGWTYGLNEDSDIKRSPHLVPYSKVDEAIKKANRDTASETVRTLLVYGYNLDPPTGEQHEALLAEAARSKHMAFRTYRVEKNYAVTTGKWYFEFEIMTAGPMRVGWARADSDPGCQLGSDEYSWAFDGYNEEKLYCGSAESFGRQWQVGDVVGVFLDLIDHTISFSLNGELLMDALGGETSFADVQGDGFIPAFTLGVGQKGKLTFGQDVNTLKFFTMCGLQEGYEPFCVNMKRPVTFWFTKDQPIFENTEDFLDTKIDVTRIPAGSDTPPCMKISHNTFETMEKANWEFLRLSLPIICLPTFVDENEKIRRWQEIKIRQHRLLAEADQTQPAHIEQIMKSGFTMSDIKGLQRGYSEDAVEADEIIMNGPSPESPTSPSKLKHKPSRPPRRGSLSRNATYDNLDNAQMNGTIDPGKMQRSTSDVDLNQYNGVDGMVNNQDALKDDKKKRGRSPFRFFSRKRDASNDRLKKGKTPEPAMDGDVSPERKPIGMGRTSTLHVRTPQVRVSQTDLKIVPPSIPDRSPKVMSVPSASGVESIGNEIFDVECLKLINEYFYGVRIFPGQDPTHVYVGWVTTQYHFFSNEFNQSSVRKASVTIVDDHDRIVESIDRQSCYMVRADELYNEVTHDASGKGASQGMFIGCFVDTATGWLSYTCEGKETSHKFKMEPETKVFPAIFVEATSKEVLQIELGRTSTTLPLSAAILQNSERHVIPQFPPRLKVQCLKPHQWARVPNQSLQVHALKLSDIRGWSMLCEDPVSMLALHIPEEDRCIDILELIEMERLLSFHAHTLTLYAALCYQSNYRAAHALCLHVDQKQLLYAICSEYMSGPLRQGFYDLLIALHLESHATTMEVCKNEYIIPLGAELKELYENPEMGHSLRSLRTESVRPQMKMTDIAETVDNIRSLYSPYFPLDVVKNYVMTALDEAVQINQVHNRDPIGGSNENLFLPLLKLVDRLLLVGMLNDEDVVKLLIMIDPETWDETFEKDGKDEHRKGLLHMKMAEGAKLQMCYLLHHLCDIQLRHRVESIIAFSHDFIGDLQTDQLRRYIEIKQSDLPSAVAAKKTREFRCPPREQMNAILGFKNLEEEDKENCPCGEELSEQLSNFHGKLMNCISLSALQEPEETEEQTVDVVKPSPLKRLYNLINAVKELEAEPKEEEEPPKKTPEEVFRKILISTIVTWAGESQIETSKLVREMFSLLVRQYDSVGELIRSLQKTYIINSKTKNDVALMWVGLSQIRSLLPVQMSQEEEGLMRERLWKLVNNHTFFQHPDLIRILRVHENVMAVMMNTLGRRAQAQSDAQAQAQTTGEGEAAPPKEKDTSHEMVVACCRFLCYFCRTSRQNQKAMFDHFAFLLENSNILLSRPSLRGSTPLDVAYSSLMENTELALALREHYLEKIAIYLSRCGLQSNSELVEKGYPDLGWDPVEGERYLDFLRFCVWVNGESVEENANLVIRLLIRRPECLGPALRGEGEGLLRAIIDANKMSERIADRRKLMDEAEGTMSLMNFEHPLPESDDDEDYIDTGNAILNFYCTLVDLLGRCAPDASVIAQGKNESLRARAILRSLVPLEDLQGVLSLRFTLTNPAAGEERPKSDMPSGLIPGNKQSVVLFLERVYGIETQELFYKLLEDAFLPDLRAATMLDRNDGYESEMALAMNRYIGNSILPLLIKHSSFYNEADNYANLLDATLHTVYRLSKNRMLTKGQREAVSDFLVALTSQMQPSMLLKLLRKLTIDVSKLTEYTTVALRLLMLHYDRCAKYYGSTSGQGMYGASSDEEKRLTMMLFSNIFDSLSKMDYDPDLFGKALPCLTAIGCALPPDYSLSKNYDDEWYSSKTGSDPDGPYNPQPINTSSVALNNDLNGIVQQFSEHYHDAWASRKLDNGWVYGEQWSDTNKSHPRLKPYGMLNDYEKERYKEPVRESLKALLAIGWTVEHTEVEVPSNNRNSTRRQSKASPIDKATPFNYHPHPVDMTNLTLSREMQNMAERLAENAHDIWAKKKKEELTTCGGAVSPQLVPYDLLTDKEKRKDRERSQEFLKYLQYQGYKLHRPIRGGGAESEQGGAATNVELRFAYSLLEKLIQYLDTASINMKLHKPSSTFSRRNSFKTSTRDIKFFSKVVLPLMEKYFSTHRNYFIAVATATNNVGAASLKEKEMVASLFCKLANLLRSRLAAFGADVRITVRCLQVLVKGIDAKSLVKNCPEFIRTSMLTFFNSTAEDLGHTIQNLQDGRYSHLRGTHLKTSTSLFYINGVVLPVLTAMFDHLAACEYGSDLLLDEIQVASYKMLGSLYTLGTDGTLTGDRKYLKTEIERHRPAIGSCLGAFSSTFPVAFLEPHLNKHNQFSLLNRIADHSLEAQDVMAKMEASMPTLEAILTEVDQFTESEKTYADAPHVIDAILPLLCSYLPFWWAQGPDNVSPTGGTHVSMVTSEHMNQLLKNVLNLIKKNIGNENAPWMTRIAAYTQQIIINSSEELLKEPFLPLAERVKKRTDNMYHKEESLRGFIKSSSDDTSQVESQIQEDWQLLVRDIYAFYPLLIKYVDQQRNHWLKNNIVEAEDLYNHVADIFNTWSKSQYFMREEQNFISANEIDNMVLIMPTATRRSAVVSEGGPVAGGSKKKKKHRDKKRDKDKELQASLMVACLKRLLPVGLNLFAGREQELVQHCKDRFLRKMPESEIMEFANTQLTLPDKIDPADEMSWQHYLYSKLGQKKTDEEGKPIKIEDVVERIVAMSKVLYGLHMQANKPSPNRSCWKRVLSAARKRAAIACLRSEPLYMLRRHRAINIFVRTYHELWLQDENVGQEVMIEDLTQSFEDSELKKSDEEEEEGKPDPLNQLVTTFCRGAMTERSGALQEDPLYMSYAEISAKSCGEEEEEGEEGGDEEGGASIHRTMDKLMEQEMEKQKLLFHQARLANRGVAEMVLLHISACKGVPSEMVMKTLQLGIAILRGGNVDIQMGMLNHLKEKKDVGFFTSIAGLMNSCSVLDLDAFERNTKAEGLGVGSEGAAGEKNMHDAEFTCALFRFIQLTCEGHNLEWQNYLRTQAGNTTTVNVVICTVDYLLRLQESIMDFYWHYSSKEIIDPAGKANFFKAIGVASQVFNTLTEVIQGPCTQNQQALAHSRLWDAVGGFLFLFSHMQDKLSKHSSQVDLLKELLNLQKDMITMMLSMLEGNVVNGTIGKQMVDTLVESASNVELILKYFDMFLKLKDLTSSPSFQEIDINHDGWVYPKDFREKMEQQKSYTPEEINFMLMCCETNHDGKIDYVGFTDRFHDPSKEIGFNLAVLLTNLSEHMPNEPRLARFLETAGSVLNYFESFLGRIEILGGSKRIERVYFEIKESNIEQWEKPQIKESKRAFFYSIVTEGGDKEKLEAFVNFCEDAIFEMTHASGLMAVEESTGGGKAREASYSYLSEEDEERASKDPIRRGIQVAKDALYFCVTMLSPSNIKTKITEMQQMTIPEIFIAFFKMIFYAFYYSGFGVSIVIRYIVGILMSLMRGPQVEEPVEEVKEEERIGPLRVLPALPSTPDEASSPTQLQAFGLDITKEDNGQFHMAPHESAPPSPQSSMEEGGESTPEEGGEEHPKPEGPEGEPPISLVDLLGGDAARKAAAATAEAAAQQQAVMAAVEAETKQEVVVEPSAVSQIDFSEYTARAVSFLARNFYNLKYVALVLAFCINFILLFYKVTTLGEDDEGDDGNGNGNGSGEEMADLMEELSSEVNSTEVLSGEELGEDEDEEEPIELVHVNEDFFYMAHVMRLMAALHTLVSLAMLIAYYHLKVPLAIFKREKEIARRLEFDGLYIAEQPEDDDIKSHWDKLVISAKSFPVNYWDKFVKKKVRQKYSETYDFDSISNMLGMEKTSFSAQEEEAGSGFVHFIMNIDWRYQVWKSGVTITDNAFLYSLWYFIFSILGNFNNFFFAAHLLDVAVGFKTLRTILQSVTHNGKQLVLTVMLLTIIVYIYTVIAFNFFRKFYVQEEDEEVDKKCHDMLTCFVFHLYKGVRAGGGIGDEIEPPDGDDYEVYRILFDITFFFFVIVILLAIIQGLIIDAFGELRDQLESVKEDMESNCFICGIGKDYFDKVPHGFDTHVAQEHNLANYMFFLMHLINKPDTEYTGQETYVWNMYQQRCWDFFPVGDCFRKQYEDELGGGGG
Measurement Type: IC50

Please review the entries below; each comes with its answer.
Compound	IC50
Cc1cc(Br)cc(C(=O)NC(C)C)c1NC(=O)c1cc(C(F)(F)F)nn1-c1ncccc1Cl	< 300 nM
[3H]c1cc(C)c(NC(=O)c2cc(C(F)(F)F)nn2-c2ccccc2F)c(C(=O)NC(C)C)c1	< 300 nM
Cc1cccc(C(=O)NC(C)C)c1NC(=O)c1cc(Br)nn1-c1ncccc1Cl	< 300 nM
CNC(=O)c1cc(Br)cc(C)c1NC(=O)c1cc(C(F)(F)F)nn1-c1ncccc1Cl	< 300 nM
Cc1cc(Cl)cc(C(=O)NC(C)C)c1NC(=O)c1cc(C(F)(F)F)nn1-c1ncccc1Cl	< 300 nM
CNC(=O)c1cc(Cl)cc(C)c1NC(=O)c1cc(C(F)(F)F)nn1-c1ncccc1Cl	< 300 nM

(Q) May I ask what IC50 has been recorded for CNC(=O)c1cc(Cl)cc(C)c1NC(=O)c1cc(Br)nn1-c1ncccc1Cl ?
(A) < 300 nM

(Q) Can you check Cc1cc(Br)cc(C(=O)NCC(C)C)c1NC(=O)c1cc(C(F)(F)F)nn1-c1ccccc1Cl next?
(A) < 300 nM
